Each item that follows carries a reported growth inhibition.
Test: NCI Yeast Anticancer Drug Screen. Data for the mlh1 rad18 strain (AID 175)
Settings: S. cerevisiae mlh1 rad18 strain growth inhibition; at 50.0 µM; active compounds read high
The panel holds about 79,000 compounds, 15% with a hit somewhere; the sample as a whole holds those more often. Calls of active or inactive are those of the source. Rule as the data show it: active = growth inhibition above about 70%; inactive = the rest.

Examples with answers:
{"Compound": "CCCCCCCCCCCCOC(=O)NCCCl", "growth inhibition": "-60.1% (inactive)"}
{"Compound": "Cn1c(-c2ccc(/C=N/N=C(N)N)cc2)c[n+]2ccccc12", "growth inhibition": "32.5% (inactive)"}
{"Compound": "CC(C)CSC(SCC(C)C)C(O)C(O)C(O)CO (stereo unspecified)", "growth inhibition": "6% (inactive)"}
{"Compound": "O=C(O)c1ccc2c([N+](=O)[O-])cccc2n1", "growth inhibition": "19.9% (inactive)"}
{"Compound": "CC(O)CNC(=O)Nc1ccccc1 (stereo unspecified)", "growth inhibition": "-17.6% (inactive)"}

For the compound CN(Nc1c([N+](=O)[O-])cc([N+](=O)[O-])cc1[N+](=O)[O-])c1ccc2ccccc2c1 , give its measured growth inhibition value.
8.35% (inactive)

###

Assay: NCI Yeast Anticancer Drug Screen. Data for the cln2 rad14 strain (AID 165);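 also: 0% = growth equal to vehicle treated cultures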
Settings: S. cerevisiae cln2 rad14 strain, at 50.0 µM, active compounds read high
The panel holds about 79,000 compounds, 15% with a hit somewhere; the sample as a whole holds those more often.
Each record here notes measured growth inhibition.
# value in %; strip the unit string

Some solved entries appear below for comparison.
{"Molecule": "O=C(NCCN1CCCCC1)c1ccc(I)cc1", "growth inhibition, %": 10.2}
{"Molecule": "CC(NC(=O)CN)C(=O)O (stereo not drawn)", "growth inhibition, %": -22.6}
{"Molecule": "CCC1=C(O)C(=O)C(C)(C)C1=O", "growth inhibition, %": -2.7}
{"Molecule": "NNC(=O)c1cccc(C(=O)NN)n1", "growth inhibition, %": 5.85}

Using the record for O=C(CCC(=O)Nc1ccc(Cl)cc1)CC(=O)c1ccc2ccccc2c1 , state its measured growth inhibition.
8.4

Identify measured growth inhibition corresponding to CC1=C[C@H](C[C@]2(C)c3c(c4c(C)cccc4oc3=O)O[C@@H]2C)OC1=O
17.2

Please report the measured growth inhibition for O=C(Nc1cccc2ccccc12)c1ccco1
3.8

###

Reported growth inhibition by item:
Test: NCI Yeast Anticancer Drug Screen. Data for the bub3 strain (AID 167)
Conditions: S. cerevisiae bub3 mutant strain, at 50.0 µM, active compounds read high
The panel holds about 79,000 compounds, 15% with a hit somewhere; the sample as a whole holds those more often.
Answer format: numeric, % implied, no suffix.

{"Compound": "CC1CSC(=S)N1C(=O)N1C(=S)SCC1C (centres undefined)", "Value Kind": "growth inhibition", "Endpoint Value": -43.9}
{"Compound": "O=C(O)c1cccc(N=Nc2ccccc2)c1O", "Value Kind": "growth inhibition", "Endpoint Value": 6.05}
{"Compound": "O=C(O)c1ccccc1/C=N\\N(CCO)C1=NCCN1", "Value Kind": "growth inhibition", "Endpoint Value": 2.95}
{"Compound": "c1ccc(CCc2ccccn2)nc1", "Value Kind": "growth inhibition", "Endpoint Value": 9.5}
{"Compound": "Cc1ccc(C)c(NC(=O)NC(C)C)c1", "Value Kind": "growth inhibition", "Endpoint Value": -5.3}

Return the recorded growth inhibition value; entry: COc1ccc(C(O)c2cc(C(F)(F)F)cc(C(F)(F)F)c2)cc1OC (centres undefined)
22.9

Could you please provide reported growth inhibition for C=C1CC(OC(=O)c2ccc([N+](=O)[O-])cc2)C1 ? Thanks!
3.7

Please report the measured growth inhibition for NC(C(F)(F)F)(C(F)(F)F)P(=O)(Cc1ccccc1)Cc1ccccc1
-23.1

Please list growth inhibition recorded for the compound CCCCCCCCCOCC(COP(=O)([O-])OCC[N+](C)(C)C)OC (centres undefined)
-7.75

Consider the compound N#Cc1c(-c2ccc(Cl)cc2)c(C#N)c(=O)n(NS(=O)(=O)c2ccccc2)c1O and give its recorded growth inhibition.
47

Using the record for COC(=O)c1ccccc1C1CN=NC12Cc1c(C)cccc1C2=O (centres undefined) , state its measured growth inhibition.
13.8

Output measured growth inhibition for this item: CN(C)Cc1ccc2ccccc2c1
6.85
